# System: OVCAR-3 ovarian
# measurementNotes: NCI tumour cell line growth inhibition, 48 h; in the data active = GI50 below about 0.43 µM; inactive = the rest
API: response.call in TRUE = active, FALSE = inactive

>  <compound>
COc1ccc2nc(-c3ccccc3)cc(Nc3ccc(/C(C)=N/O)cc3)c2c1

>  <classAssignment>
FALSE

$$$$
>  <compound>
Oc1c(I)cc(I)cc1CNCCCN(Cc1ccccn1)Cc1ccccn1

>  <classAssignment>
FALSE

$$$$
>  <compound>
CC(=O)OC1CCC2(C)C(CCC3C2CCC2(C)C(C4=CC(=O)OC4)CCC32)C1 (stereo unspecified)

>  <classAssignment>
FALSE

$$$$
>  <compound>
O=C(Cc1ccc(/C=C/C(=O)c2ncc[nH]2)cc1)Nc1ccc(Br)cc1

>  <classAssignment>
FALSE

$$$$
>  <compound>
O=C1OCC2=C1C(c1cccc(F)c1)c1cc3c(cc1N2CCO)OCCO3 (stereo unspecified)

>  <classAssignment>
TRUE

$$$$

Turning now to a further record.
**Query** Per the records of this test, what outcome belongs to `Cc1cc[c-]cc1.Fc1c[c-]c(-c2ccccn2)c(F)c1.N#CCC[PH+](CCC#N)c1ccccc1.[Pt+2]` ?
**Result** FALSE
